tested on: 253994-281-T-J1-PDC KRAS-mutant spheroids with HUVEC/MSC, viability; test: Anticancer human tumor 253994-281-T-J1-PDC patient-derived colorectal carcinoma cell line growth inhibition [KRAS2]; settings: compound alone; run of 08/19/2021
pIC50: −log10 of the molar value.
parameterMeasured: pIC50

COc1cc2nc(C)nc(NC(C)c3cc(N)cc(C(F)(F)F)c3)c2cc1OC1CCOC1 (configuration not stated)    < 5.00

Read the next record carefully.
Lab note: molecule C=CC(=O)N1CCN(c2nc(=O)n(-c3c(C)ccnc3C(C)C)c3nc(-c4c(O)cccc4F)c(F)cc23)C(C)C1 (configuration not stated) tested on 253994-281-T-J1-PDC KRAS-mutant spheroids with HUVEC/MSC, viability; recorded pIC50 was < 5.00

###

test system: 253994-281-T-J1-PDC KRAS-mutant spheroids with HUVEC/MSC, viability; assay: Anticancer human tumor 253994-281-T-J1-PDC cell line growth inhibition [KRAS2]; conditions: second compound 1 µM; first compound 0.0316 µM; active means viability on the fitted dose curve at most 10% of control; inactive means the rest;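 also: spheroids exposed to agents for seven days before readout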
One label from this list, please: active, inactive

Some solved entries appear below for comparison.
CC(C)n1nc(-c2ccc3oc(N)nc3c2)c2c(N)ncnc21 + C=CC(=O)N1CCN(c2nc(=O)n(-c3c(C)ccnc3C(C)C)c3nc(-c4c(O)cccc4F)c(F)cc23)C(C)C1    inactive
O=C(c1cc(Cc2n[nH]c(=O)c3ccccc23)ccc1F)N1CCN(C(=O)C2CC2)CC1 + CNCc1ccccc1-c1csc(C(C)Nc2nc(C)nc3cc(OC)c(OC)cc23)c1    inactive
CN(C)C/C=C/C(=O)Nc1cc2c(Nc3ccc(F)c(Cl)c3)ncnc2cc1O[C@H]1CCOC1 + CNCc1ccccc1-c1csc(C(C)Nc2nc(C)nc3cc(OC)c(OC)cc23)c1    inactive
CC1OCC2(CCN(c3cnc(Sc4ccnc(N)c4Cl)c(N)n3)CC2)C1N (stereo not given) + C=CC(=O)N1CCN(c2nc(OCC3CCCN3C)nc3c2CCN(c2cccc4cccc(C)c24)C3)CC1CC#N    inactive

Test call, this molecule: CC1(C)CCC(CN2CCN(c3ccc(C(=O)NS(=O)(=O)c4ccc(NCC5CCOCC5)c([N+](=O)[O-])c4)c(Oc4cnc5[nH]ccc5c4)c3)CC2)=C(c2ccc(Cl)cc2)C1 + CC1OCC2(CCN(c3cnc(Sc4ccnc(N)c4Cl)c(N)n3)CC2)C1N
inactive

What is the recorded call for this molecule in the test? COC(=O)c1ccc2c(C(=Nc3ccc(N(C)C(=O)CN4CCN(C)CC4)cc3)c3ccccc3)c(O)[nH]c2c1 + CNCc1ccccc1-c1csc(C(C)Nc2nc(C)nc3cc(OC)c(OC)cc23)c1
inactive

What did this assay record as the result for O=C(c1cc(Cc2n[nH]c(=O)c3ccccc23)ccc1F)N1CCN(C(=O)C2CC2)CC1 + C=CC(=O)N1CCN(c2nc(=O)n(-c3c(C)ccnc3C(C)C)c3nc(-c4c(O)cccc4F)c(F)cc23)C(C)C1 ?
inactive

Returns: the outcome recorded for CN(C)C/C=C/C(=O)Nc1cc2c(Nc3ccc(F)c(Cl)c3)ncnc2cc1O[C@H]1CCOC1 + CC1OCC2(CCN(c3cnc(Sc4ccnc(N)c4Cl)c(N)n3)CC2)C1N in this assay.
inactive

Per the assay record, what outcome was assigned to Cn1ncnc1[C@H]1c2n[nH]c(=O)c3cc(F)cc(c23)N[C@@H]1c1ccc(F)cc1 + C=CC(=O)N1CCN(c2nc(OCC3CCCN3C)nc3c2CCN(c2cccc4cccc(C)c24)C3)CC1CC#N ?
inactive
